# peptide exchange yield values compiled below
biological target: T1, HLA-A*02:01 (peptide-receptive MHC class I monomer after UV-ligand exchange) (human); test: UV-ligand exchange + anti-b2m ELISA; exchange yield grade: + >=10%, ++ >=20%, +++ >=50, ++++ >=75%
T1 construct: Monomers made with a UV-sensitive peptide that is cleaved by UV and exchanged for the test peptide; captured on streptavidin plates; also called MHC molecules

Previously resolved entries follow.
What does the data say about its peptide exchange yield? Entry: GLLGDIAIHL [peptide GLLGDIAIHL (SEQ ID NO: 7)]
50 to 75%

What does the data say about its peptide exchange yield? Entry: AIIDGKIFCV [peptide AIIDGKIFCV (SEQ ID NO: 77)]
50 to 75%

What does the data say about its peptide exchange yield? Entry: SLFERLVVL [peptide SLFERLVVL (SEQ ID NO: 109)]
≥ 75%

For the next question, use this binder.
What does the data say about its peptide exchange yield? Entry: RIIDPEDLKALL [peptide RIIDPEDLKALL (SEQ ID NO: 78)]
≥ 75%
